Source listed as patent US20250154283A1.

- assayed target: T1, biotinylated human VWF cysteine knot (CK) domain construct (human, UniProt P04275 2724-2813, biotinylated in vitro (BirA) on the biotinylation tag; one N-glycan)
- T1 construct: Expressed in HEK293 EBNA cells; disulfide-linked homodimer; also called human VWF CK; human VWF CK domain; not shown: in vitro biotinylation tag, HRV-3C site and 3 VWF residues before the CK domain
- run description: SPR, scFv captured via anti-SV5, CK domain injected, pH 5.5, apparent Kd;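 also: scFvs from crude yeast supernatants captured on chip-bound anti-SV5 antibody, Kd computed as koff divided by kon, dimeric CK construct likely makes affinity appear higher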
pKd: −log10 of the molar value.
Label 1 (yes) when pKd is at or above 10; anything below gets 0 (no).

Query block: Is it the case that Lib1_P1_G3_scFv (scFv, VH-linker-VL; not shown: C-terminal 3xFLAG and SV5 tags) scFv: QVQLVQSGAEVKKPGASVKVSCKVSGYTSRQYIHWVRQAPGKGLEWMGWVTPIFGTTNYAQKFQGRVTMTEDTSTDTAYMELSSLKSEDTAVYYCAREWTGTTAFDIWGQGTLVTVSSSGGSTITSYNVYYTKLSSSGTDIQMTQSPSSVSASVGDRVTITCRASQDIGHYLAWYQQKPGKAPKLLIYAASNRASGVPSRFSGSGSGTDFTLTISSLQPEDFANYYCQQGYSAPYGFGGGTKVEIK has pKd reaching or exceeding 10?
Result block: 1 (yes)

Query block: Is it the case that Lib4_P2_B4_scFv (scFv, VH-linker-VL; not shown: C-terminal 3xFLAG and SV5 tags) scFv: QVQLQESGPGLVKPSQTLSLTCTVSGASLGDQYWSWIRQPPGKGLEWIGYIHPSGDFDYNPSLKSRVTMSVDTSKNQFSLKVNSVTAADTAVYYCARHYSSSWYGTWYFDLWGRGTLVTVSSSGGSTITSYNVYYTKLSSSGTEIVMTQSPATLSLSPGERATLSCRASQNIGTNLAWYQQKPGQAPRLLIYDASVRAAGIPARFSGSGSGTDFTLTISSLEPEDFAVYYCQQSLTTPLTFGGGTKVEIK has pKd reaching or exceeding 10?
Result block: 0 (no)

Query block: Is it the case that Lib4_P2_A10_scFv (scFv, VH-linker-VL; not shown: C-terminal 3xFLAG and SV5 tags) scFv: QVQLQESGPGLVKPSQTLSLTCTVSGASLGHQYWSWIRQPPGKGLEWIGYIDTSGSTDYNPSLKSRVTMSVDTSKNQFSLKVNSVTAADTAVYYCARVANYYYYMDVWGKGTTVTVSSSGGSTITSYNVYYTKLSSSGTEIVMTQSPATLSLSPGERATLSCRASQSVSNRLAWYQQKPGQAPRLLIYDASNRATGIPARFSGSGSGTDFTLTISSLEPEDFAVYYCQQYFITPSTFGGGTKVEIK has pKd reaching or exceeding 10?
Result block: 0 (no)

Query block: Is it the case that 7046_Lib8_scFv (scFv, VH-linker-VL; not shown: C-terminal 3xFLAG and SV5 tags) scFv: EVQLVESGGGLVQPGRSLRLSCAASGFNFHNYDMHWVRQAPGKGLEWVSAISGSGYTADYADSVEGRFTISRDNAKNSLYLQMNSLRAEDTAVYYCAKSHSSGWSSAFDIWGQGTMVTVSSSGGSTITSYNVYYTKLSSSGTDIQMTQSPSSLSASVGDRVTITCRASQTIGYWLAWYQQKPGKAPKLLIYDATNLATGVPSRFSGSGSGTDFTLTISSLQPEDVATYYCQHYNPYSQVTFGGGTKVEIK has pKd reaching or exceeding 10?
Result block: 0 (no)

Query block: Is it the case that 15244_Lib8_scFv (scFv, VH-linker-VL; not shown: C-terminal 3xFLAG and SV5 tags) scFv: EVQLVESGGGLVQPGRSLRLSCAASGFTFADYDMHWVRQAPGKGLEWVSATSSHGVTTDYADSVEGRFTISRDNAKNSLYLQMNSLRAEDTAVYYCARGAWSGIAARQYIDYWGQGTLVTVSSSGGSTITSYNVYYTKLSSSGTDIQMTQSPSSLSASVGDRVTITCRASQTIGYWLAWYQQKPGKAPKLLIYDASVPESGVPSRFSGSGSGTDFTLTISSLQPEDVATYYCQQSYSYPLTFGGGTKVEIK has pKd reaching or exceeding 10?
Result block: 0 (no)
